Provenance of the data: patent US7696234B2

TARGET_DESC: H3R membranes (human histamine 3 receptor) (Homo sapiens)
Construct: expressed in transfected cells; pcDNA3.1(+) vector, G418 selection)
Sequence (Q9Y5N1 whole entry): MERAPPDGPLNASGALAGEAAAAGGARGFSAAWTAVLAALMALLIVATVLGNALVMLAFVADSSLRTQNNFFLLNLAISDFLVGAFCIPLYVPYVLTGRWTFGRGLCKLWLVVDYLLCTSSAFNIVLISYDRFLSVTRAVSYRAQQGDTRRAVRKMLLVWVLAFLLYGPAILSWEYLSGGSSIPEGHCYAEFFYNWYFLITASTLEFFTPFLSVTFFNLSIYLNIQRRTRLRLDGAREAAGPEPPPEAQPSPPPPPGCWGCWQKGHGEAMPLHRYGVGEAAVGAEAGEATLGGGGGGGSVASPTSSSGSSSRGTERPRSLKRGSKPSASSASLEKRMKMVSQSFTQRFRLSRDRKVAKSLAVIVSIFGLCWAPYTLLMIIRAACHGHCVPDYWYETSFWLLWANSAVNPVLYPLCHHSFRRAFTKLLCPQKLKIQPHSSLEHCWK
PROTOCOL_TEXT: [35S] GTP γ [S] Binding Assay
Assay type: biochemical
ASSAY_CONTEXT: inhibition of [35S]GTPγS binding to membranes from H3R8-expressing HEK293 cells in the presence of agonist R(−)alpha methylhistamine
Catalogue of Ki readings, one per entry.
Your reply should be a number followed by the unit it is expressed in.

| MOL_SMILES | VALUE |
| --- | --- |
| COc1ccc(COc2ccc(C(=O)N3CCC[C@H]3CN3CCCC3)cc2)cc1 | 19 nM |

Then there is this compound:
Problem: Supply measured Ki of O=C(c1ccc(OCc2cnccn2)cc1)N1CCC[C@H]1CN1CCCC1 in your reply.
Solution: 4.1 nM
